- Tested on: IL-12 production in human PBMC or THP-1 cells
- assay-explanation: In vitro inhibition of IL-12 production in stimulated human PBMC or THP-1 cells (ELISA)
- Type: cell-based
- recorded-conditions: representative in vitro IC50 data
Listing of recorded IC50 by entry.

Illustrative cases are given below, each with its answer.
[[record]]
mol = "Cc1cccc(/C=N/Nc2cc(N3CCOCC3)nc(CCNS(=O)(=O)N(C)C)n2)c1"
measure_name = "IC50"
recorded_result = "< 0.025 µM"

[[record]]
mol = "Cc1cccc(/C=N/Nc2cc(N3CCOCC3)nc(CCCOC(=S)Nc3cccnc3)n2)c1"
measure_name = "IC50"
recorded_result = "< 0.025 µM"


Report measured IC50 on IL-12 production in human PBMC or THP-1 cells; entry: Cc1cccc(/C=N/Nc2cc(N3CCOCC3)nc(CCCOC(=O)Nc3ccccc3F)n2)c1
< 0.025 µM

Data provenance: patent US7872005B2
